Data origin: patent US20210238260A1

- studySystem: T1, plasma purified human AT-III (antithrombin III) (human, UniProt P01008 33-464)
- T1 construct: also called AT-III/UFH (in complex with unfractionated heparin)
- assayText: K0.5: AT-III/UFH titrated on FIXa, residual activity on fluorogenic substrate

>  <binder>
FIXa-D104N/K106S/Y155F/K228N/K247N/N249S (enzyme) chain 1: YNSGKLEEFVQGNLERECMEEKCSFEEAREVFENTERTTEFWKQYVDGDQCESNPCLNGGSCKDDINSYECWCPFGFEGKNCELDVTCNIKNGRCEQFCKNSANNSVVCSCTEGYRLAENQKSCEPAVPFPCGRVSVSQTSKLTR chain 2: VVGGEDAKPGQFPWQVVLNGKVDAFCGGSIVNEKWIVTAAHCVETGVNITVVAGEHNIEETEHTEQNRSVIRIIPHHNYNAAINKYNHDIALLELDEPLVLNSYVTPICIADKEYTNIFLKFGSGYVSGWGRVFHKGRSALVLQYLRVPLVDRATCLRSTKFTIYNNMFCAGFHEGGRDSCQGDSGGPHVTEVEGTSFLTGIISWGEECAMKGKYGIYTKVSRYVNWIKEKTKLT

>  <IC50 [µM]>
0.032

$$$$
>  <binder>
FIXa-D104N/K106S/I251S/R318Y/R338E/E410N (enzyme) chain 1: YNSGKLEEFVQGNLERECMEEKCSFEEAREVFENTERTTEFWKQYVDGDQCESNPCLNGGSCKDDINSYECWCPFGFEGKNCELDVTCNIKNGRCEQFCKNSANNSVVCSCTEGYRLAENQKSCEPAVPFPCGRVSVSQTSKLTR chain 2: VVGGEDAKPGQFPWQVVLNGKVDAFCGGSIVNEKWIVTAAHCVETGVKITVVAGEHNIEETEHTEQKRNVSRIIPHHNYNAAINKYNHDIALLELDEPLVLNSYVTPICIADKEYTNIFLKFGSGYVSGWGRVFHKGYSALVLQYLRVPLVDRATCLESTKFTIYNNMFCAGFHEGGRDSCQGDSGGPHVTEVEGTSFLTGIISWGEECAMKGKYGIYTKVSRYVNWIKNKTKLT

>  <IC50 [µM]>
8.98

$$$$
>  <binder>
FIXa-K247N/N249S/R318Y/R338E/E410N (enzyme, also called K82N/N84S/R150Y/R170E/E240N) chain 1: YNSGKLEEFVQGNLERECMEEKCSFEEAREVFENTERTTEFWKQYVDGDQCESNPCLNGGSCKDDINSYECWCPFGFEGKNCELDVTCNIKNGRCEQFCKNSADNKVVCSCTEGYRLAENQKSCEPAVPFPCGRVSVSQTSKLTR chain 2: VVGGEDAKPGQFPWQVVLNGKVDAFCGGSIVNEKWIVTAAHCVETGVKITVVAGEHNIEETEHTEQNRSVIRIIPHHNYNAAINKYNHDIALLELDEPLVLNSYVTPICIADKEYTNIFLKFGSGYVSGWGRVFHKGYSALVLQYLRVPLVDRATCLESTKFTIYNNMFCAGFHEGGRDSCQGDSGGPHVTEVEGTSFLTGIISWGEECAMKGKYGIYTKVSRYVNWIKNKTKLT

>  <IC50 [µM]>
1.51

$$$$
>  <binder>
FIXa-Y155F/K247N/N249S/R318Y/R338E/E410N (enzyme) chain 1: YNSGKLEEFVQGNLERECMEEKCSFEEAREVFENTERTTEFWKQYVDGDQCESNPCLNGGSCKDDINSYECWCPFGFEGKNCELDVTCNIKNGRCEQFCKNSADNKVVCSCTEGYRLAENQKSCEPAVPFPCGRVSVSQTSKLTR chain 2: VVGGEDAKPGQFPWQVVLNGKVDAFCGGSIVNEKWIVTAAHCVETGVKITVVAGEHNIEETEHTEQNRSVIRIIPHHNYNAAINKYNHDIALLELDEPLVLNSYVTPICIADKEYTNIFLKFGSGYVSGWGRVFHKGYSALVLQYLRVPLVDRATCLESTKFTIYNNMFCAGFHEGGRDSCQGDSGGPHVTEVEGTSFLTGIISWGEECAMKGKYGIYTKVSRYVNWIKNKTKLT

>  <IC50 [µM]>
3.88

$$$$
>  <binder>
FIXa-I251S/R318Y/R338E/E410N (enzyme, also called I86S/R150Y/R170E/E240N; I251S/R318Y/E410N/R338E) chain 1: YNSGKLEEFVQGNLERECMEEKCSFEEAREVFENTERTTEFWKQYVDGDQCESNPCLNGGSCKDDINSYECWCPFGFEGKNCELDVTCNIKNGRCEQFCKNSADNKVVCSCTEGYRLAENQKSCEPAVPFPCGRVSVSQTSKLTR chain 2: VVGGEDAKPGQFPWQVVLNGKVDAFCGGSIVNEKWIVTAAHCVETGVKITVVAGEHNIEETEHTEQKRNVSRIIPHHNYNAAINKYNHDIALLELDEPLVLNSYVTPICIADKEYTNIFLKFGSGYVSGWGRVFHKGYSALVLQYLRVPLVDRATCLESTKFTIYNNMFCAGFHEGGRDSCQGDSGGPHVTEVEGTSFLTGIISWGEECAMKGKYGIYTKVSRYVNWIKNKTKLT

>  <IC50 [µM]>
5.86

$$$$
>  <binder>
FIXa-A103N/N105S/K247N/N249S/R318Y/R338E/R403E/E410N (enzyme) chain 1: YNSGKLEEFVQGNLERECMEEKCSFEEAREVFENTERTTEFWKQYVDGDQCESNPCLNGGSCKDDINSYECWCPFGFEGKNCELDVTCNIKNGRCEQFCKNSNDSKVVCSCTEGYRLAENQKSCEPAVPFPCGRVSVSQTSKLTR chain 2: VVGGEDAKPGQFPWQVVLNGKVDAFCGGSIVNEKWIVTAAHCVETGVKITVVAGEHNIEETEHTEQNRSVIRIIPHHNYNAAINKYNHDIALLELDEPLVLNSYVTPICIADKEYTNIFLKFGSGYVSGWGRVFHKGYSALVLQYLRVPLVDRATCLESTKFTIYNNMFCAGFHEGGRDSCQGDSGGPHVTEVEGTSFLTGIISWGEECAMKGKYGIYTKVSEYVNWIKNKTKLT

>  <IC50 [µM]>
2.5

$$$$
>  <binder>
FIXa-R318Y/R338E/E410S (enzyme, also called R150Y/R170E/E240S) chain 1: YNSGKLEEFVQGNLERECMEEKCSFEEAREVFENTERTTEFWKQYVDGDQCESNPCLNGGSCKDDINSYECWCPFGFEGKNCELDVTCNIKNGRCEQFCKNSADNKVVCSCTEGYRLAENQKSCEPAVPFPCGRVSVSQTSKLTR chain 2: VVGGEDAKPGQFPWQVVLNGKVDAFCGGSIVNEKWIVTAAHCVETGVKITVVAGEHNIEETEHTEQKRNVIRIIPHHNYNAAINKYNHDIALLELDEPLVLNSYVTPICIADKEYTNIFLKFGSGYVSGWGRVFHKGYSALVLQYLRVPLVDRATCLESTKFTIYNNMFCAGFHEGGRDSCQGDSGGPHVTEVEGTSFLTGIISWGEECAMKGKYGIYTKVSRYVNWIKSKTKLT

>  <IC50 [µM]>
5.4

$$$$
